- Test system: ACHN renal
- assay-procedure: NCI tumour cell line growth inhibition, 48 h
assay-endpoint: GI50

compound="CCCCN(CCCC)c1ccc(C(=NC(C)CCCN(CC)CC)c2ccc(N(C)C)cc2)cc1 (configuration not stated)" result="0.935 µM"
compound=Nc1ccc(-c2ccc(N)cc2I)c(I)c1 result="22.6 µM"
compound=O=C(OCCBr)c1ccc(Cl)c([N+](=O)[O-])c1 result="18.8 µM"
compound=C/C=C/[C@@H]1OC(=O)C2=C[C@@H](O)[C@@H](/C=C/C)O[C@H]21 result="2.34 µM"
compound=CS(=O)(=O)Nc1ccc(N=Cc2c(O)[nH]c3ccccc23)cc1 result="> 25 µM"

Prompt line: For CCCCNC(=O)NS(=O)(=O)c1ccc(N2N=C(c3cc(C)ccc3C)CC2c2cc(OC)c(OC)c(OC)c2)cc1 (configuration not stated) , what is its reported GI50?
Response line: 3.69 µM

Prompt line: Note, next up: CCN1C(=O)N(CC)C2C1NN=c1s/c(=C\c3cc4ccccc4[nH]3)c(=O)n12 (configuration not stated)
Response line: < 0.0157 µM

Prompt line: Note, next up: Nc1n[nH]c2ccc([C@@H]3Nc4ccc5[nH]ncc5c4[C@H]4C5C=CC(C5)[C@@H]34)cc12 (some centres not stated)
Response line: 0.562 µM

Prompt line: Note, next up: Nc1nc(N)c(N=O)c(OCC2CCCCC2)n1
Response line: 5.47 µM

Prompt line: Note, next up: N.N.NCCCCCCN.O=C([O-])CC(=O)[O-].O=C([O-])CC(=O)[O-].[Pt+4].[Pt+4]
Response line: 36.1 µM

Prompt line: Note, next up: CCNCCNc1cc(C2CCCCC2)c(C#N)c2nc3ccccc3n12
Response line: 1.79 µM

Reference for the values: PubChem BioAssay (NCI)
